system: HL-60; experiment: In vitro antiproliferative activity (MTT), HL-60; format: cell-based; conditions: Homo sapiens, tumor cell proliferation, 72 h, mean ± SE
measurement.kind: IC50 (nM)

{"columns": ["structure.as.smiles", "experimental.system", "recorded.number"],
 "data": [
  ["COc1ccc(-c2nccn2-c2cc(OC)c(OC)c(OC)c2)cc1Cl", "HL-60", 453]
]}

(a) COc1cc(-n2ccnc2-c2ccc(SC)cc2)cc(OC)c1OC
(b) CCCOc1ccc(-c2nccn2-c2cc(OC)c(OC)c(OC)c2)cc1
Q. From the items above, decide which of a and b has the lower IC50 reading. Pick one and reply with its label.
A. b
(b: 63 nM, a: 333 nM)
